The measured values listed here are drawn from the supplement of paper PMC10567573.

B1: POMT2 (parent)
chain: VLRSRIRFIHLVTGCVLGSSGKVL

Variants of: B1
Test: protein stability index of a GFP-peptide fusion (GPS, HEK-293T) (PSI 1-6); higher = more stable;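 also: lentivirally expressed fusions sorted by FACS into six bins by GFP to DsRed ratio, PSI derived from sequencing read proportions per bin multiplied by bin number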
Conditions: c terminus: a fixed tail appended
measured.attribute: protein stability index

[[record]]
sequence_data = "VLRSRIRQIHLVTGCVLGSSGKVL [F8Q]"
measured_attribute = "protein stability index"
data_value = 1.67

[[record]]
sequence_data = "VLRSRIRFIHLVTGCMLGSSGKVL [V16M]"
measured_attribute = "protein stability index"
data_value = 3.73

[[record]]
sequence_data = "VLRSRIRFIHLVTGCVLGSSGKEL [V23E]"
measured_attribute = "protein stability index"
data_value = 3.48

[[record]]
sequence_data = "VLRVRIRFIHLVTGCVLGSSGKVL [S4V]"
measured_attribute = "protein stability index"
data_value = 2.38

[[record]]
sequence_data = "VLRSRIRFGHLVTGCVLGSSGKVL [I9G]"
measured_attribute = "protein stability index"
data_value = 2.62

[[record]]
sequence_data = "VLRSRIRFIHLVTGCVLGSSGHVL [K22H]"
measured_attribute = "protein stability index"
data_value = 2.37

[[record]]
sequence_data = "VLRLRIRFIHLVTGCVLGSSGKVL [S4L]"
measured_attribute = "protein stability index"
data_value = 3.33

[[record]]
sequence_data = "VLRSRIRFIHLVTGCVLGSSGKVE [L24E]"
measured_attribute = "protein stability index"
data_value = 3.25

[[record]]
sequence_data = "VLRSRIRFIHLVTECVLGSSGKVL [G14E]"
measured_attribute = "protein stability index"
data_value = 1.96

[[record]]
sequence_data = "VLRSRIRFIHLPTGCVLGSSGKVL [V12P]"
measured_attribute = "protein stability index"
data_value = 2.25

[[record]]
sequence_data = "KLRSRIRFIHLVTGCVLGSSGKVL [V1K]"
measured_attribute = "protein stability index"
data_value = 2.88

[[record]]
sequence_data = "VLRTRIRFIHLVTGCVLGSSGKVL [S4T]"
measured_attribute = "protein stability index"
data_value = 3.04

[[record]]
sequence_data = "VLRSRIRFIHLVTGCVLGSSNKVL [G21N]"
measured_attribute = "protein stability index"
data_value = 2.47

[[record]]
sequence_data = "VLRSRIRFIHAVTGCVLGSSGKVL [L11A]"
measured_attribute = "protein stability index"
data_value = 2.33

[[record]]
sequence_data = "VCRSRIRFIHLVTGCVLGSSGKVL [L2C]"
measured_attribute = "protein stability index"
data_value = 2.48

[[record]]
sequence_data = "VLRSRLRFIHLVTGCVLGSSGKVL [I6L]"
measured_attribute = "protein stability index"
data_value = 2.83

[[record]]
sequence_data = "VLRSRIRFIHLVTGCVLGPSGKVL [S19P]"
measured_attribute = "protein stability index"
data_value = 3.18

[[record]]
sequence_data = "VLRSRIRFIHLVTGCVDGSSGKVL [L17D]"
measured_attribute = "protein stability index"
data_value = 3.16

[[record]]
sequence_data = "VLRSRIRFIHLVTFCVLGSSGKVL [G14F]"
measured_attribute = "protein stability index"
data_value = 3.15

[[record]]
sequence_data = "VLRSRICFIHLVTGCVLGSSGKVL [R7C]"
measured_attribute = "protein stability index"
data_value = 2.94

[[record]]
sequence_data = "VLRSRGRFIHLVTGCVLGSSGKVL [I6G]"
measured_attribute = "protein stability index"
data_value = 2.81

[[record]]
sequence_data = "VLRSRIRFIHLVTACVLGSSGKVL [G14A]"
measured_attribute = "protein stability index"
data_value = 4.85

